Tested on: Poly(dA-dT)oligonucleotide
Assay: Binding affinity to poly(dAT)2 assessed as change in melting temperature at compound to polynucleotide ratio of 1
Format: nucleic-acid assay
Attribute Measured: ΔTm (°C)
Express the result in °C but write the number alone.

-- ask Param item = "CN(C)CCCn1c2c(c3ccccc3c1=O)C(=O)c1cccc(O)c1-2" ; retrieve measured ΔTm.
-- reply 17.1

-- ask And for "CN(C)CCOc1cccc2c1-c1c(c3ccccc3c(=O)n1CCN(C)C)C2=O" ?
-- reply 30.5

-- ask And for "CN(C)CCCn1c2c(c3ccccc3c1=O)C(=O)c1cccc(OCCN(C)C)c1-2" ?
-- reply 42.7

-- ask And for "CN(C)CCCOc1ccc2c(c1)-c1c(c3ccccc3c(=O)n1CCN(C)C)C2=O" ?
-- reply 31.4

-- ask And for "CN(C)CCCOc1ccc2c(c1)C(=O)c1c-2n(CCCN(C)C)c(=O)c2ccccc12" ?
-- reply 46.9

----------
System: HL-60
Test: Resistance index, ratio IC50 for human HL60/MX2 cells to IC50 for human HL60 cells
Assay type: functional
Please provide measured Ratio IC50 for the entries that follow.

-- ask Param item = "CN(C)CCCOc1ccc2c(c1)-c1c(c3ccccc3c(=O)n1CCN(C)C)C2=O" ; retrieve measured Ratio IC50.
-- reply 1.3

-- ask And for "CN(C)CCCCn1c2c(c3ccccc3c1=O)C(=O)c1ccc(OCCN(C)C)cc1-2" ?
-- reply 1.85

-- ask And for "CN(C)CCn1c2c(c3ccccc3c1=O)C(=O)c1ccc(O)cc1-2" ?
-- reply 2.9

-- ask And for "CN(C)CCOc1ccc2c(c1)-c1c(c3ccccc3c(=O)n1CCN(C)C)C2=O" ?
-- reply 2.3

-- ask And for "CN(C)CCCOc1cccc2c1-c1c(c3ccccc3c(=O)n1CCCN(C)C)C2=O" ?
-- reply 0.9

-- ask And for COc1cc([C@@H]2c3cc4c(cc3[C@@H](O[C@@H]3O[C@@H]5CO[C@@H](C)O[C@H]5[C@H](O)[C@H]3O)[C@H]3COC(=O)[C@H]23)OCO4)cc(OC)c1O [ETOPOSIDE] ?
-- reply 11.25

-- ask And for "CN(C)CCCOc1ccc2c(c1)-c1c(c3ccccc3c(=O)n1CCCN(C)C)C2=O" ?
-- reply 3.6

-- ask And for "CN(C)CCCOc1cccc2c1-c1c(c3ccccc3c(=O)n1CCN(C)C)C2=O" ?
-- reply 0.9

-- ask And for "CN(C)CCCn1c2c(c3ccccc3c1=O)C(=O)c1ccc(O)cc1-2" ?
-- reply 2.4

-- ask And for "CN(C)CCCn1c2c(c3ccccc3c1=O)C(=O)c1cccc(OCCN(C)C)c1-2" ?
-- reply 1.4

----------
System: Calf thymus DNA
Assay: Apparent binding affinity to calf thymus DNA by fluorimetry
Format: nucleic-acid assay
Details: Bos taurus
Please provide measured Kapp for the entries that follow.
Express the result in ×10⁶ /M but write the number alone.

-- ask Param item = "CN(C)CCCn1c2c(c3ccccc3c1=O)C(=O)c1cccc(OCCN(C)C)c1-2" ; retrieve measured Kapp.
-- reply 52.7

-- ask And for "CN(C)CCCCn1c2c(c3ccccc3c1=O)C(=O)c1ccc(OCCCN(C)C)cc1-2" ?
-- reply 41.6

-- ask And for "CN(C)CCCOc1cccc2c1-c1c(c3ccccc3c(=O)n1CCN(C)C)C2=O" ?
-- reply 130

-- ask And for "CN(C)CCCOc1cccc2c1-c1c(c3ccccc3c(=O)n1CCCN(C)C)C2=O" ?
-- reply 108

-- ask And for "CN(C)CCCOc1ccc2c(c1)-c1c(c3ccccc3c(=O)n1CCCN(C)C)C2=O" ?
-- reply 33.4

-- ask And for "CN(C)CCOc1cccc2c1-c1c(c3ccccc3c(=O)n1CCN(C)C)C2=O" ?
-- reply 55.8

-- ask And for "CN(C)CCCCn1c2c(c3ccccc3c1=O)C(=O)c1ccc(OCCN(C)C)cc1-2" ?
-- reply 25.7

-- ask And for "CN(C)CCCOc1ccc2c(c1)C(=O)c1c-2n(CCCN(C)C)c(=O)c2ccccc12" ?
-- reply 89.3

-- ask And for "CN(C)CCCOc1ccc2c(c1)-c1c(c3ccccc3c(=O)n1CCN(C)C)C2=O" ?
-- reply 28.7

-- ask And for "CN(C)CCCOc1ccc2c(c1)C(=O)c1c-2n(CCN(C)C)c(=O)c2ccccc12" ?
-- reply 72

----------
Test: Inhibition of DNA topoisomerase 2 assessed as pUC19 DNA relaxation by agarose gel electrophoresis
Active and inactive are the calls of the source. The rule behind the calls is not given here.
Form entry, call: pick from active, inactive

-- ask // outcome(item) with item = "CN(C)CCCOc1ccc2c(c1)C(=O)c1c-2n(CCCN(C)C)c(=O)c2ccccc12"
-- reply inactive

-- ask And for "CN(C)CCOc1cccc2c1-c1c(c3ccccc3c(=O)n1CCN(C)C)C2=O" ?
-- reply inactive

-- ask And for "CN(C)CCCn1c2c(c3ccccc3c1=O)C(=O)c1cccc(OCCN(C)C)c1-2" ?
-- reply inactive

-- ask And for COc1cc([C@@H]2c3cc4c(cc3[C@@H](O[C@@H]3O[C@@H]5CO[C@@H](C)O[C@H]5[C@H](O)[C@H]3O)[C@H]3COC(=O)[C@H]23)OCO4)cc(OC)c1O [ETOPOSIDE] ?
-- reply active

-- ask And for "CN(C)CCCCn1c2c(c3ccccc3c1=O)C(=O)c1ccc(OCCN(C)C)cc1-2" ?
-- reply active

-- ask And for "CN(C)CCCn1c2c(c3ccccc3c1=O)C(=O)c1ccc(O)cc1-2" ?
-- reply active

-- ask And for "CN(C)CCCOc1cccc2c1-c1c(c3ccccc3c(=O)n1CCCN(C)C)C2=O" ?
-- reply inactive

-- ask And for "CN(C)CCCOc1ccc2c(c1)C(=O)c1c-2n(CCN(C)C)c(=O)c2ccccc12" ?
-- reply inactive

-- ask And for "CN(C)CCCOc1ccc2c(c1)-c1c(c3ccccc3c(=O)n1CCCN(C)C)C2=O" ?
-- reply active

-- ask And for "CN(C)CCCCn1c2c(c3ccccc3c1=O)C(=O)c1ccc(OCCCN(C)C)cc1-2" ?
-- reply active

-- ask And for "CN(C)CCOc1ccc2c(c1)-c1c(c3ccccc3c(=O)n1CCN(C)C)C2=O" ?
-- reply active

-- ask And for "CN(C)CCn1c2c(c3ccccc3c1=O)C(=O)c1ccc(O)cc1-2" ?
-- reply active

-- ask And for "CN(C)CCCOc1ccc2c(c1)-c1c(c3ccccc3c(=O)n1CCN(C)C)C2=O" ?
-- reply active

-- ask And for "CN(C)CCCOc1cccc2c1-c1c(c3ccccc3c(=O)n1CCN(C)C)C2=O" ?
-- reply inactive

----------
Test system: Poly(dA-dT)oligonucleotide
Experiment: Binding affinity to poly(dAT)2 assessed as change in melting temperature at compound to polynucleotide ratio of 1
Format: nucleic-acid assay
Please provide measured ΔTm for the entries that follow.
Express the result in °C but write the number alone.

-- ask Param item = "CN(C)CCn1c2c(c3ccccc3c1=O)C(=O)c1ccc(O)cc1-2" ; retrieve measured ΔTm.
-- reply 7.7

-- ask And for "CN(C)CCCOc1cccc2c1-c1c(c3ccccc3c(=O)n1CCN(C)C)C2=O" ?
-- reply 44.7

-- ask And for "CN(C)CCCOc1cccc2c1-c1c(c3ccccc3c(=O)n1CCCN(C)C)C2=O" ?
-- reply 41.3

-- ask And for "CN(C)CCCCn1c2c(c3ccccc3c1=O)C(=O)c1ccc(OCCN(C)C)cc1-2" ?
-- reply 33.9

-- ask And for "CN(C)CCCOc1ccc2c(c1)-c1c(c3ccccc3c(=O)n1CCCN(C)C)C2=O" ?
-- reply 40.6

-- ask And for "COc1cccc2c1C(=O)c1c(O)c3c(c(O)c1C2=O)C[C@@](O)(C(C)=O)C[C@@H]3O[C@H]1C[C@H](N)[C@H](O)[C@H](C)O1" ?
-- reply 21.9

-- ask And for "CN(C)CCCn1c2c(c3ccccc3c1=O)C(=O)c1ccc(O)cc1-2" ?
-- reply 16.6

-- ask And for "CN(C)CCCOc1ccc2c(c1)C(=O)c1c-2n(CCN(C)C)c(=O)c2ccccc12" ?
-- reply 36

-- ask And for "CN(C)CCCCn1c2c(c3ccccc3c1=O)C(=O)c1ccc(OCCCN(C)C)cc1-2" ?
-- reply 37.1
